assay: chemical genetic growth profiling, strain panel (AID 1159580);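 also: tested at 20 µM; growth read once vehicle control cultures reached saturation at 30 °C; 1 = growth at the plate median or of vehicle wells; lower values mean less growth of the strain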; settings: S. cerevisiae deletion strains, growth OD, locus YHR142W, strain chs7
Hit rate of the full screen: of about 5,500 compounds, about 2,000 (36%) were called active. Another 18% or so got no clear call; they are omitted. Rule as the data show it: active = normalized growth mostly below about 0.91 (no sharp cut-off); inconclusive = no clear call, values can overlap the other calls; inactive = mostly above about 0.92. This is one part of the list.
Classes used: 1 for active, 0 for inactive

{"columns": ["compound", "qualitative.label"],
 "data": [
  ["C=C(C)[C@H]1CC=C(C(=O)O)CC1", 0],
  ["CN[C@H](CC(=O)O)C(=O)O", 0],
  ["O=C(O)C1=CCNCC1", 0],
  ["Nc1ncnc2c1ncn2[C@@H]1O[C@H](CO)[C@@H](O)[C@H]1O", 0],
  ["CS(=O)(=O)CCCCN=C=S", 1],
  ["CC1(C)CCCC2(C)C3C1[C@@H](O)C2(C)C[C@H]3O (some centres undefined)", 0],
  ["COC(C)(C)CCC[C@H](C)C/C=C/C(C)=C/C(=O)OC(C)C", 0],
  ["CCN(CC)CCNC(=O)c1cc(S(C)(=O)=O)ccc1OC", 0],
  ["O=c1[nH]c(=O)n(C2C[C@@H](O)[C@@H](CO)O2)cc1F (some centres undefined)", 0]
]}
